# System: Escherichia coli TOP10
# testMethodNotes: shrunken log2 fold change of peptide-encoding DNA abundance (4.5 h post-induction vs induction); higher = less antimicrobial activity (less host growth inhibition)
# conditionInfo: time post-induction: 4.5 h; library: site-saturation at positions 5, 18, 19, 20
Threshold rule: shrunken log2 fold change greater than or equal to -0.04 is class 1; below that, class 0.

Solved entries (count: 3):
{"biosequence": "RRIRKRPPRLPRPRPRPSQTPRP", "labelValue": "class 1"}
{"biosequence": "RRIRARPPRLPRPRPRPYQCPRP", "labelValue": "class 0"}
{"biosequence": "RRIRNRPPRLPRPRPRPKSAPRP", "labelValue": "class 1"}

Please turn your attention to the following entry.
Evaluate "RRIRQRPPRLPRPRPRPPSWPRP" : shrunken log2 fold change at minimum -0.04?
class 1

---

As shown below, each of these sequences has a reported shrunken log2 fold change value.
# Test system: Escherichia coli TOP10
# testMethodNotes: shrunken log2 fold change of peptide-encoding DNA abundance (4.5 h post-induction vs induction); higher = less antimicrobial activity (less host growth inhibition)
# conditionInfo: time post-induction: 4.5 h; library: site-saturation at positions 5, 18, 19, 20
Answer with the value's number alone.

{"biosequence": "RRIRCRPPRLPRPRPRPPLRPRP", "experimentalResult": 0.35}
{"biosequence": "RRIRARPPRLPRPRPRPWDAPRP", "experimentalResult": 0.108}
{"biosequence": "RRIRFRPPRLPRPRPRPDRLPRP", "experimentalResult": 0.147}
{"biosequence": "RRIRNRPPRLPRPRPRPNGCPRP", "experimentalResult": -0.0605}
{"biosequence": "RRIRMRPPRLPRPRPRPWRNPRP", "experimentalResult": -0.00207}
{"biosequence": "RRIRPRPPRLPRPRPRPWSVPRP", "experimentalResult": -0.101}
{"biosequence": "RRIRFRPPRLPRPRPRPLYHPRP", "experimentalResult": -0.859}
{"biosequence": "RRIRQRPPRLPRPRPRPWEAPRP", "experimentalResult": -0.00204}
{"biosequence": "RRIRCRPPRLPRPRPRPCWVPRP", "experimentalResult": -0.4}
{"biosequence": "RRIRMRPPRLPRPRPRPNCCPRP", "experimentalResult": -0.0306}

For the sequence shown here, "RRIRKRPPRLPRPRPRPKEFPRP" , give the reported shrunken log2 fold change.
0.232

For the sequence shown here, "RRIRSRPPRLPRPRPRPMQVPRP" , give the reported shrunken log2 fold change.
-0.064

For the sequence shown here, "RRIRNRPPRLPRPRPRPYDHPRP" , give the reported shrunken log2 fold change.
-0.219

For the sequence shown here, "RRIRQRPPRLPRPRPRPGDHPRP" , give the reported shrunken log2 fold change.
-0.0718

---

# System: Escherichia coli TOP10;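 also: peptides expressed intracellularly from a pBAD plasmid library in pooled LB shake-flask culture, induced with 0.3% L-arabinose, DNA abundance read by NGS, three biological replicates, DESeq2 with apeglm shrinkage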
# testMethodNotes: shrunken log2 fold change of peptide-encoding DNA abundance (4.5 h post-induction vs induction); higher = less antimicrobial activity (less host growth inhibition)
# conditionInfo: time post-induction: 4.5 h; library: site-saturation at positions 5, 18, 19, 20
Threshold rule: shrunken log2 fold change greater than or equal to -0.03 is True; below that, False.

Solved entries (count: 8):
{"biosequence": "RRIRNRPPRLPRPRPRPTWKPRP", "labelValue": "True"}
{"biosequence": "RRIRMRPPRLPRPRPRPQRSPRP", "labelValue": "True"}
{"biosequence": "RRIRPRPPRLPRPRPRPPHIPRP", "labelValue": "True"}
{"biosequence": "RRIRHRPPRLPRPRPRPALEPRP", "labelValue": "False"}
{"biosequence": "RRIRVRPPRLPRPRPRPMCKPRP", "labelValue": "False"}
{"biosequence": "RRIRRRPPRLPRPRPRPIYYPRP", "labelValue": "False"}
{"biosequence": "RRIRDRPPRLPRPRPRPEGHPRP", "labelValue": "False"}
{"biosequence": "RRIRWRPPRLPRPRPRPESRPRP", "labelValue": "True"}

Evaluate "RRIRRRPPRLPRPRPRPPPYPRP" : shrunken log2 fold change at minimum -0.03?
True

Evaluate "RRIRWRPPRLPRPRPRPSWVPRP" : shrunken log2 fold change at minimum -0.03?
True

Evaluate "RRIRYRPPRLPRPRPRPAWKPRP" : shrunken log2 fold change at minimum -0.03?
True

Evaluate "RRIRPRPPRLPRPRPRPHLMPRP" : shrunken log2 fold change at minimum -0.03?
False

Reference for the values: the supplement of paper PMC9112550
